Test system: BCL6-low-expressing ovarian cancer cell line IGROV-1 (BCL6低表达卵巢癌细胞株)
method: SRB proliferation assay, BCL6-low ovarian cancer cell line
Type: cell-based, human
test_settings: BCL6-low-expressing ovarian cancer cells (IGROV-1), 72 h; read-out: half-maximal proliferation inhibition activity
readout_label: IC50

Data request: Consider the molecule C[C@@H]1CN(c2ncc(F)c(Nc3ccc4oc(=O)ccc4c3)n2)C[C@H](C)N1 [WK369] tested on BCL6-low-expressing ovarian cancer cell line IGROV-1 (BCL6低表达卵巢癌细胞株); state its IC50.
Data returned: ~16 µM

* * *

experimental_target: BCL6-SMRT interaction (BCL6片段蛋白与多肽SMRT的相互作用) (Homo sapiens)
Construct: 本发明所需BCL6蛋白N端的BTB/POZ结构域序列为
method: HTRF assay of inhibition of BCL6 fragment protein - SMRT polypeptide interaction
test_settings: 6His-SMRT 200 nM, BCL6-GST 6.25 nM, room temperature overnight; read-out: half-maximal inhibitory concentration (IC50)
readout_label: IC50 (nM)
Please give a number only; it is taken to be in nM.

Data request: Give a short answer stating reported IC50 for `C[C@@H]1CN(c2ncc(F)c(Nc3ccc4oc(=O)ccc4c3)n2)C[C@H](C)N1` .
Data returned: 315
